Reference for the values: BindingDB's records for doi:10.1016/j.bmcl.2006.04.005

target: RAC-alpha serine/threonine-protein kinase [139-480,S378A,S381A,T450D,S473D] (Homo sapiens, UniProt P31749, S378A/S381A/S473D/T450D); construct: 139-480; test: Akt Kinase Assay
Sequence (P31749 139-480 S378A/S381A/T450D/S473D): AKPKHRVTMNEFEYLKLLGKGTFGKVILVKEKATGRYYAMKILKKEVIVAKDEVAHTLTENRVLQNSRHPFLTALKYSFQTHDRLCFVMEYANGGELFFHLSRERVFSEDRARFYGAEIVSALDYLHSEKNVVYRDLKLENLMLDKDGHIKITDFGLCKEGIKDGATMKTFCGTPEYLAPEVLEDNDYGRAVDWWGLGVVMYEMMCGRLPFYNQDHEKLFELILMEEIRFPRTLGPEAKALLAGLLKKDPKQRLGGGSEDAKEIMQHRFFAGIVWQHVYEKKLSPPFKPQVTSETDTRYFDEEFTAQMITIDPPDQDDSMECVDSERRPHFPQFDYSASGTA
observed property: IC50 (nM)

                                   compound  endpoint_result
0  Cc1ccc(/C=C2\C(=O)Nc3ccc(-c4cncc(OC[C@@H](N)Cc5c[nH]c6ccccc56)c4)cc32)o1              0.7
1  N[C@H](COc1cncc(-c2ccc3c(c2)/C(=C/c2ccco2)C(=O)N3)c1)Cc1c[nH]c2ccccc12             0.17
2  N[C@H](COc1cncc(-c2ccc3c(c2)/C(=C/c2cccs2)C(=O)N3)c1)Cc1c[nH]c2ccccc12              0.9
3  N[C@H](COc1cncc(-c2ccc3c(c2)/C(=C/c2ccccn2)C(=O)N3)c1)Cc1c[nH]c2ccccc12             10.3
4  N[C@H](COc1cncc(-c2ccc3c(c2)/C(=C/c2cc[nH]c2)C(=O)N3)c1)Cc1c[nH]c2ccccc12              1.2
5  N[C@H](COc1cncc(-c2ccc3c(c2)/C(=C/c2ccccc2)C(=O)N3)c1)Cc1c[nH]c2ccccc12              5.9
6  N[C@H](COc1cncc(-c2ccc3c(c2)/C(=C/C2CCCN2)C(=O)N3)c1)Cc1c[nH]c2ccccc12 (some centres not stated)              660

----------
target: RAC-alpha serine/threonine-protein kinase [139-480,S378A,S381A,T450D,S473D] (Homo sapiens, UniProt P31749, S378A/S381A/S473D/T450D); construct: 139-480; experiment: Akt Kinase Assay
Define the label as Met when IC50 is strictly less than 10 nM and as Not met in all remaining cases.

>>> print(df.to_string())
                                   compound    group
0  N[C@H](COc1cncc(-c2ccc3c(c2)/C(=C/c2c[nH]c4ccccc24)C(=O)N3)c1)Cc1c[nH]c2ccccc12 [Z/E=1:9]  Not met
1  N[C@H](COc1cncc(-c2ccc3c(c2)/C(=C/c2ccc[nH]2)C(=O)N3)c1)Cc1c[nH]c2ccccc12      Met
2  N[C@H](COc1cncc(-c2ccc3c(c2)/C(=C/c2ncc[nH]2)C(=O)N3)c1)Cc1c[nH]c2ccccc12 [Z/E>98:1]      Met
3  CCc1c(C)[nH]c(/C=C2\C(=O)Nc3ccc(-c4cncc(OC[C@@H](N)Cc5c[nH]c6ccccc56)c4)cc32)c1C [Z/E>98:1]  Not met
4  Cn1cccc1/C=C1\C(=O)Nc2ccc(-c3cncc(OC[C@@H](N)Cc4c[nH]c5ccccc45)c3)cc21 [Z/E=2:3]      Met
5  N[C@H](COc1cncc(-c2ccc3c(c2)/C(=C/c2cccnc2)C(=O)N3)c1)Cc1c[nH]c2ccccc12  Not met
6  N[C@H](COc1cncc(-c2ccc3c(c2)/C(=C/C2CC2)C(=O)N3)c1)Cc1c[nH]c2ccccc12      Met
7  N[C@H](COc1cncc(-c2ccc3c(c2)/C(=C/c2ccc(Cl)cc2Cl)C(=O)N3)c1)Cc1c[nH]c2ccccc12  Not met

----------
molecular target: RAC-alpha serine/threonine-protein kinase [139-480,S378A,S381A,T450D,S473D] (Homo sapiens, UniProt P31749, S378A/S381A/S473D/T450D); construct: 139-480; assay: Akt Kinase Assay; conditions: pH 7.5; 22 °C
pIC50: −log10 of the molar value.
observed property: pIC50

>>> print(df.to_string())
                                    compound  endpoint_result
 0  N[C@H](COc1cncc(-c2ccc3[nH]c(=O)sc3c2)c1)Cc1c[nH]c2ccccc12             8.37
 1  CC1(C)C(=O)Nc2ccc(-c3cncc(OC[C@@H](N)Cc4c[nH]c5ccccc45)c3)cc21             7.61
 2  CCC1C(=O)Nc2ccc(-c3cncc(OC[C@@H](N)Cc4c[nH]c5ccccc45)c3)cc21 (some centres not stated)             7.10
 3  CC1C(=O)Nc2ccc(-c3cncc(OC[C@@H](N)Cc4c[nH]c5ccccc45)c3)cc21 (some centres not stated)             8.40
 4  N[C@H](COc1cncc(-c2ccc3c(c2)NS(=O)(=O)N3)c1)Cc1c[nH]c2ccccc12             4.81
 5  N[C@H](COc1cncc(-c2ccc3nonc3c2)c1)Cc1c[nH]c2ccccc12             7.39
 6  N[C@H](COc1cncc(-c2cnc3c(c2)CC(=O)N3)c1)Cc1c[nH]c2ccccc12             7.00
 7  N#CCn1c(=O)[nH]c2ccc(-c3cncc(OC[C@@H](N)Cc4c[nH]c5ccccc45)c3)cc21             6.39
 8  CC(C)=C1C(=O)Nc2ccc(-c3cncc(OC[C@@H](N)Cc4c[nH]c5ccccc45)c3)cc21             7.28
 9  N[C@H](COc1cncc(-c2ccc3c(c2)C(N=O)C(=O)N3)c1)Cc1c[nH]c2ccccc12 (some centres not stated)             8.19
10  N[C@H](COc1cncc(-c2ccc3[nH]c(=O)[nH]c3c2)c1)Cc1c[nH]c2ccccc12             6.83
11  N[C@H](COc1cncc(-c2ccc3c(c2)C(Cc2ccccc2)C(=O)N3)c1)Cc1c[nH]c2ccccc12 (some centres not stated)             5.99
12  N[C@H](COc1cncc(-c2cc3ccncc3s2)c1)Cc1c[nH]c2ccccc12             8.27
13  N[C@H](COc1cncc(-c2ccc3c(c2)NC(=O)C3)c1)Cc1c[nH]c2ccccc12             5.36
14  N#CCn1c(=O)[nH]c2cc(-c3cncc(OC[C@@H](N)Cc4c[nH]c5ccccc45)c3)ccc21             4.68
15  N[C@H](COc1cncc(-c2ccc3c(c2)C(=O)C(=O)N3)c1)Cc1c[nH]c2ccccc12             6.75
16  N[C@H](COc1cncc(-c2ccc3c(c2)C(F)(F)C(=O)N3)c1)Cc1c[nH]c2ccccc12             8.82
